test.target: Left-right determination factor 2 (Homo sapiens) (UniProt O00292)
Sequence (O00292 whole entry, looked up): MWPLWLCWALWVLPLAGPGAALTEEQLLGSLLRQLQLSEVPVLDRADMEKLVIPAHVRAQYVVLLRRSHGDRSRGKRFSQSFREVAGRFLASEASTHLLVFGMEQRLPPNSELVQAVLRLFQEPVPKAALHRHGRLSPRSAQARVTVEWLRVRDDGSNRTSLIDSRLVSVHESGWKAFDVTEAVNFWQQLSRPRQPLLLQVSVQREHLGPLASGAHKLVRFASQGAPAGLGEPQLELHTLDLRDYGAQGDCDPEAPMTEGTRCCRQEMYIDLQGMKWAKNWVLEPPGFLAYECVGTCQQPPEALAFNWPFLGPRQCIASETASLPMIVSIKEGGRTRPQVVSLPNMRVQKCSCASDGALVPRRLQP
assay.overview: small molecules binding LEFTY2 protein – biochemical, small-molecule microarray, 635 nm fluorescence scan, primary screen (AID 1110)
condition.parameters: higher = more signal
readout.label: composite z-score

{"compound": "COC(=O)[C@@]1(Cc2ccc(OC)cc2)[C@H]2c3cc(C(=O)N4CCCC4)n(Cc4c(CO)[nH]cc(C)c4=O)c3C[C@H]2CN1C(=O)c1ccccc1", "test.target": "Left-right determination factor 2 (Homo sapiens) (UniProt O00292)", "composite z-score": -0.181}
{"compound": "CCCC=C(CCC)[C@@H](NC(=O)c1ccc(C(F)(F)F)cc1)c1ccc(C(F)(F)F)cc1", "test.target": "Left-right determination factor 2 (Homo sapiens) (UniProt O00292)", "composite z-score": -0.203}

Lab note: next compound to report on.
Asked: Form field - read-out: composite z-score; system: Left-right determination factor 2 (Homo sapiens) (UniProt O00292); submitted item: CCCCN1CC=CC23O[C@@H]4/C=C\CCCOC(=O)C4[C@H]2C(=O)N(C(CO)C(C)C)[C@@H]3C1=O (stereo partly drawn)
Given back: 0.272
